Value source: paper PMC6399351

Test system: P. aeruginosa ATCC 10145
STATED CONDITIONS: CFU assay, 10 mM NaP, pH 5.5, 0.25% glucose
Ends that are not written are not given here.
Lab note - cut at 0.6 µg/mL for LD100: criterion met if strictly below, criterion not met if not.

Example results:
HAHSGHGQSTQRGSR [FLG-22082-2096] | criterion not met
GRHGSGLGHSSSH [HR 1-37] | criterion not met
HSQRGSGSRQSPSYGRH [HR 2-16] | criterion not met
QSGTRHAETSSGGQAASSHEQAR [FLG3273-3295] | criterion not met
GRRGSGGGRSSSRGGRGSGSGR [HR 1-18,4H-4R/L-G] | criterion met
HTHSGHTHSQARSQHGESESTVHKR [FLG-21894-1918] | criterion met
GGHGSGLGHSSSHGQHGSGSGRSSSRGPY [HR 1-17R1-G] | criterion met
QSGTRHTQTSSGGQAASSHEQAR [FLG2625-2647] | criterion not met

Input line: Would you kindly verify if LD100 of SRRSSSLSRSSSRSSRSSSSSR [HR 1-18,4H-4R/9G-9S] is strictly less than 0.6 µg/mL?
Output line: criterion not met

Input line: Would you kindly verify if LD100 of HGSGLGHSSSHGQHGSGSGR [HR 1-8] is strictly less than 0.6 µg/mL?
Output line: criterion not met

Input line: Would you kindly verify if LD100 of GRHGSGLGHSSSHGQHGSGSGGSSSRGPY [HR 1-17R2-G] is strictly less than 0.6 µg/mL?
Output line: criterion met

Input line: Would you kindly verify if LD100 of GRHGSGLGHSSSHGQH [HR 1-25] is strictly less than 0.6 µg/mL?
Output line: criterion not met

Input line: Would you kindly verify if LD100 of HTQNSSSGQAASSHEQAR [FLG684-701] is strictly less than 0.6 µg/mL?
Output line: criterion not met
